biological target: FimH (Escherichia coli, UniProt P08191); assay: SPR, competition in solution with immobilized Fab 1C10; assay type: binding; settings: read-out: Kd
Sequence (P08191 22-179): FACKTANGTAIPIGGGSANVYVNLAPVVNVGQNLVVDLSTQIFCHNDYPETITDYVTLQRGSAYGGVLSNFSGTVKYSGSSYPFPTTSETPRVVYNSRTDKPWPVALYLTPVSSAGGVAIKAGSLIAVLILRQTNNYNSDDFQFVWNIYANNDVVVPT

# Structure smiles, Unit abbrev, Kd
records = [
    ("CO[C@@H]1O[C@H](CO)[C@@H](O)[C@H](O[C@H]2O[C@H](CO)[C@@H](O)[C@H](O)[C@@H]2O)[C@@H]1O", "nM", 112),
]

---

target: FimH (Escherichia coli); experiment: SPR, competition in solution with immobilized Fab 1C10; format: binding
Endpoint name: Kd (nM)

# Compound, Observed
records = [
    ("OC[C@H]1O[C@H](O[C@H]2[C@H](O)[C@@H](CO)OC(O)[C@H]2O)[C@@H](O)[C@@H](O)[C@@H]1O (mixture of isomers)", 281),
]

# credit: paper PMC2323111
